Target: human recombinant adrenergic α1D receptor (Homo sapiens, UniProt P25100)
Construct: expressed in transfected cells; host or cells: human embryonic kidney (HEK-293) cells
Sequence (P25100 1-572): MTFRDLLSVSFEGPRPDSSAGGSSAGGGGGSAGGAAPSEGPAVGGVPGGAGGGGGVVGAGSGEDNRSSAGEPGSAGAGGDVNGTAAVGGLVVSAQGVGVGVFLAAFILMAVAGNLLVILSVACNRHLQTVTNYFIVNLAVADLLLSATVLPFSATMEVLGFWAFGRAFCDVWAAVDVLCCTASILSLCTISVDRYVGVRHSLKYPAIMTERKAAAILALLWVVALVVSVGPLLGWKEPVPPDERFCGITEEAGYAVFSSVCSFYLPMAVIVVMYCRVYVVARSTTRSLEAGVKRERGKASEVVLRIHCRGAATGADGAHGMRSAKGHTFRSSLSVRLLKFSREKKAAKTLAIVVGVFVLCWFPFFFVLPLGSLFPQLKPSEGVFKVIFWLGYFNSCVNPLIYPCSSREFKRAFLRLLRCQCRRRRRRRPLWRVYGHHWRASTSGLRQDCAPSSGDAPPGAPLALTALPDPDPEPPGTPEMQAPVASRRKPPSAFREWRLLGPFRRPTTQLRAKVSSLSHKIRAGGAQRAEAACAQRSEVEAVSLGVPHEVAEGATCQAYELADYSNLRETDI
Test: Adrenergic α1D radioligand binding ([3H]Prozosin)
Details: percent inhibition of specific binding; compound at 1 μM; read-out: Inhibition of ligand binding, Adrenergic α1D
The threshold is inclusive: inhibition at 1 µM of exactly 90% counts as True; values below receive False.

>  <compound>
C=C(Cn1c2c(c3cc(Cl)ccc31)CN(C)CC2)c1ccc(C)nc1

>  <tested-system>
human recombinant adrenergic α1D receptor (Homo sapiens, UniProt P25100)

>  <group-label>
False

$$$$
>  <compound>
C/C(=C\n1c2c(c3cc(C)ccc31)CN(C)CC2)c1ccc(Cl)cc1

>  <tested-system>
human recombinant adrenergic α1D receptor (Homo sapiens, UniProt P25100)

>  <group-label>
True

$$$$
>  <compound>
CN1CCc2c(c3cc(Cl)ccc3n2C2=C(c3cccnc3)CCCC2)C1

>  <tested-system>
human recombinant adrenergic α1D receptor (Homo sapiens, UniProt P25100)

>  <group-label>
False

$$$$
>  <compound>
CN1CCc2c(c3cc(Cl)ccc3n2CC(C)(O)c2ccc(F)cc2)C1 (centres unmarked)

>  <tested-system>
human recombinant adrenergic α1D receptor (Homo sapiens, UniProt P25100)

>  <group-label>
False

$$$$
>  <compound>
CN1CCc2c(c3cc(Cl)ccc3n2CC(O)(c2ccc(F)cc2)C2CCC2)C1 (centres unmarked)

>  <tested-system>
human recombinant adrenergic α1D receptor (Homo sapiens, UniProt P25100)

>  <group-label>
False

$$$$

----------
Test system: rat central imidazoline I2 receptor
Test: Central imidazoline I2 radioligand binding ([3H]Idazoxan)
Description: To evaluate in radioligand binding assays the activity of compounds of the invention, rat central imidazoline I2 receptor obtained from Wistar Rat cerebral cortex (Brown, C. M. et al., Br. J. Pharmacol. 99:803, 1990) in a modified Tris-HCl buffer (50 mM Tris-HCl buffer, pH 7.4, 0.5 mM EDTA) was used. […] Receptor proteins were filtered and washed, the filters were then counted to determine [^3H]Idazoxan specifically bound. […]
endpoint-name: Imidazoline I2 Central (1 μM), percent inhibition of specific binding (%)

>  <compound>
Cc1ccc2c(c1)c1c(n2CC#Cc2ccccn2)CCN(C)C1

>  <readout-unit>
%

>  <observed-value>
54

$$$$
>  <compound>
Cc1ccc2[nH]c3c(c2c1)CN(C)CC3

>  <readout-unit>
%

>  <observed-value>
58

$$$$
>  <compound>
CCN1CCc2c(c3cc(C)ccc3n2CC(O)c2ccc(C)cc2)C1 (racemic)

>  <readout-unit>
%

>  <observed-value>
79

$$$$
>  <compound>
Cc1ccc(C(O)Cn2c3c(c4ccccc42)CN(C)CC3)cc1 (racemic)

>  <readout-unit>
%

>  <observed-value>
78

$$$$

----------
target: human dopamine D2L receptor (Homo sapiens, UniProt P14416); experiment: Dopamine D2L radioligand binding ([3H]Spiperone); conditions: percent inhibition of specific binding; compound at 1 μM; read-out: Inhibition of ligand binding, Dopamine D2L
Sequence (P14416 whole entry): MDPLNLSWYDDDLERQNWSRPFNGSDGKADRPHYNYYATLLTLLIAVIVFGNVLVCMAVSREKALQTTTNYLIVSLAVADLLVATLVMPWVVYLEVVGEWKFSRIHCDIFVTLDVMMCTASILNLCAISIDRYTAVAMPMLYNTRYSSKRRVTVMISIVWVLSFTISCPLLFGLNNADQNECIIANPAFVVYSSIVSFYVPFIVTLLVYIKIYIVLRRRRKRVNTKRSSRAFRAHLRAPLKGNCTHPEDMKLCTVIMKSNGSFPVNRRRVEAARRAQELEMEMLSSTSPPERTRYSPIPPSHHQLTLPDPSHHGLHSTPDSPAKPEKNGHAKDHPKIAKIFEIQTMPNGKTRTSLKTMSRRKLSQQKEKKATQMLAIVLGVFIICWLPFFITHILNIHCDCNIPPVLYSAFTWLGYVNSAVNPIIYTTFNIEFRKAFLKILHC
Below is a list of entries, each paired with its recorded inhibition at 1 µM value.

>  <compound>
C/C(=C\n1c2c(c3cc(C)ccc31)CN(C)CC2)c1ccccn1 [Compound 278]

>  <readout-unit>
%

>  <inhibition at 1 µM>
51

$$$$
>  <compound>
Cc1ccc(/C=C/Cn2c3c(c4cc(Cl)ccc42)CN(C)CC3)cn1 [Compound 125]

>  <readout-unit>
%

>  <inhibition at 1 µM>
20

$$$$
>  <compound>
CN1CCc2c(c3ccccc3n2CC(C)(O)c2ccncc2)C1 (centres unmarked) [Compound 186]

>  <readout-unit>
%

>  <inhibition at 1 µM>
3

$$$$
>  <compound>
CC/C(=C\n1c2c(c3cc(C)ccc31)CN(C)CC2)c1ccncc1 [Compound 283]

>  <readout-unit>
%

>  <inhibition at 1 µM>
66

$$$$
>  <compound>
C/C(=C/n1c2c(c3cc(C)ccc31)CN(C)CC2)c1ccc(Cl)c(Cl)c1 [Compound 247]

>  <readout-unit>
%

>  <inhibition at 1 µM>
28

$$$$
>  <compound>
Cc1ccc2c(c1)c1c(n2CC(O)c2ccncc2)CCN(C)C1 (centres unmarked) [Compound 180]

>  <readout-unit>
%

>  <inhibition at 1 µM>
10

$$$$
>  <compound>
C/C(=C\n1c2c(c3cc(Cl)ccc31)CN(C)CC2)c1cc(F)c(F)cc1Cl [Compound 241]

>  <readout-unit>
%

>  <inhibition at 1 µM>
47

$$$$
>  <compound>
CCCC/C(=C\n1c2c(c3cc(Cl)ccc31)CN(C)CC2)c1ccc(F)cc1 [Compound 208]

>  <readout-unit>
%

>  <inhibition at 1 µM>
78

$$$$

----------
molecular target: histamine receptor H1 (Homo sapiens); assay: Histamine H1 radioligand binding ([3H]Pyrilamine); conditions: read-out: Histamine Binding (1 μM) H1, percent inhibition of specific binding, 1 μM
Sequence (P35367 whole entry): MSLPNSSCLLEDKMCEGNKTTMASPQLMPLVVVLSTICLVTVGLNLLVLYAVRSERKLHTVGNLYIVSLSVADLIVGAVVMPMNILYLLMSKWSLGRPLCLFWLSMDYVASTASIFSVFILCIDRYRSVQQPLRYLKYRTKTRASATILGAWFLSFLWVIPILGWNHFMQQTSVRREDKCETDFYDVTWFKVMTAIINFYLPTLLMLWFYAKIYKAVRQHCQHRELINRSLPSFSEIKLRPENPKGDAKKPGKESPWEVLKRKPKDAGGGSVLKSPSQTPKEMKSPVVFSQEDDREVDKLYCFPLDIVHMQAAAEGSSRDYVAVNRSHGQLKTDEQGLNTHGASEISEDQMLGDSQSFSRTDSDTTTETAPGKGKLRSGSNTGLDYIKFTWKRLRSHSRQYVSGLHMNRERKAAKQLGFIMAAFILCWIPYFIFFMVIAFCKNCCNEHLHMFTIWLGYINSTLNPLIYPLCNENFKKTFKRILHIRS
The threshold is inclusive: inhibition at 1 µM of exactly 50% counts as true; values below receive false.

>  <molecule>
C/C(=C\n1c2c(c3ccc(Cl)cc31)CN(C)CC2)c1ccc(C)nc1

>  <group-label>
false

$$$$
>  <molecule>
COc1ccc(C#Cn2c3c(c4cc(Cl)ccc42)CN(C)CC3)cc1F

>  <group-label>
false

$$$$
>  <molecule>
C/C(=C\n1c2c(c3cc(Cl)ccc31)CN(CCC(C)(C)O)CC2)c1ccncc1

>  <group-label>
false

$$$$
>  <molecule>
COc1ccc(/C(C)=C/n2c3c(c4cc(C)ccc42)CN(C)CC3)cc1F

>  <group-label>
false

$$$$
>  <molecule>
CN1CCc2c(c3cc(Cl)ccc3n2C/C(=C\CCO)c2ccc(F)cc2)C1

>  <group-label>
false

$$$$
>  <molecule>
C=C(Cn1c2c(c3cccc(Cl)c31)CN(C)CC2)c1ccc(F)cc1

>  <group-label>
true

$$$$
>  <molecule>
C/C(=C\n1c2c(c3cc(C)ccc31)CN(C)CC2)c1ccc(F)c(F)c1

>  <group-label>
false

$$$$
>  <molecule>
C/C(=C\n1c2c(c3cc(NC4CCC4)ccc31)CN(C)CC2)c1ccncc1

>  <group-label>
false

$$$$
>  <molecule>
Cc1ccc2c(c1)c1c(n2CC(O)(c2ccc(F)cc2)C2CCCCC2)CCN(C)C1 (stereo not drawn)

>  <group-label>
false

$$$$
>  <molecule>
C/C(=C\n1c2c(c3cc(C)ccc31)CN(C)CC2)c1ccc(Cl)cc1

>  <group-label>
true

$$$$
>  <molecule>
Cc1ccc2c(c1)c1c(n2CC(O)(c2ccncc2)C(C)C)CCN(C)C1 (stereo not drawn)

>  <group-label>
false

$$$$
>  <molecule>
C/C(=C\n1c2c(c3cc(C)ccc31)CN(CCO)CC2)c1ccncc1

>  <group-label>
false

$$$$
>  <molecule>
C/C(=C\n1c2c(c3cc(Cl)ccc31)CN(C)CC2)c1ccsc1

>  <group-label>
true

$$$$
>  <molecule>
C/C(=C\n1c2c(c3cc(Cl)ccc31)CN(C)CC2)c1ccncc1

>  <group-label>
false

$$$$
>  <molecule>
COc1ccc(C#Cn2c3c(c4cc(C)ccc42)CN(C)CC3)cn1

>  <group-label>
false

$$$$
>  <molecule>
C/C(=C\n1c2c(c3cc(C)ccc31)CN(CCF)CC2)c1ccncc1

>  <group-label>
false

$$$$
>  <molecule>
C/C(=C\n1c2c(c3cc(N(C)C)ccc31)CN(C)CC2)c1ccncc1

>  <group-label>
false

$$$$
>  <molecule>
COCCCN1CCc2c(c3cc(C)ccc3n2/C=C(\C)c2ccncc2)C1

>  <group-label>
false

$$$$
>  <molecule>
C/C(=C\n1c2c(c3cc(Cl)ccc31)CN(C)[C@@H](C)C2)c1ccncc1

>  <group-label>
true

$$$$
>  <molecule>
C/C(=C/n1c2c(c3cc(Cl)ccc31)CN(C)CC2)c1ccccc1Cl

>  <group-label>
true

$$$$
>  <molecule>
Cc1ccc(C(C)(O)Cn2c3c(c4cc(Cl)ccc42)CN(C)CC3)cn1 (stereo not drawn)

>  <group-label>
false

$$$$
>  <molecule>
CN1CCc2c(c3cc(Cl)ccc3n2/C=C/c2ccccc2)C1

>  <group-label>
true

$$$$
>  <molecule>
C/C(=C/n1c2c(c3cc(C)ccc31)CN(C)CC2)C1CCCCC1

>  <group-label>
true

$$$$
>  <molecule>
Cc1ccc2c(c1)c1c(n2C#Cc2cncn2C)CCN(C)C1

>  <group-label>
false

$$$$
